target.desc: Recombinant human Cathepsin B (human, UniProt P07858 80-333)
assay.comment: cell-based or functional assay
Non-standard residues stand in square brackets, D forms with d. Groups on a side chain read outwards from the residue. Primed or numbered codes have the meaning given here. No end group written: not given here. *: point of attachment. OCPT = camptothecin (CPT) attached as an ester, CC[C@@]1(O*)C(=O)OCc2c1cc1n(c2=O)Cc2cc3ccccc3nc2-1; PEG4′ = tetraethylene glycol; CO′ = not defined here; Dap = NC[C@H](N)C(=O)O; CPT = Camptothecin; Sar = CNCC(=O)O
# reported Ratio (T1/2 Compound/T1/2 Reference); entries follow
Form rule: numeric answer, no unit written next to it.

Looking up R[PEG4′]FRE([Sar-OCPT])F-OH [Compound 8, Arg-PEG4-Phe-Arg-Glu(Sar-OCPT)-Phe-OH] , I see its Ratio (T1/2 Compound/T1/2 Reference) listed as 0.19

---
Looking up R[PEG4′]FRS([CO′-CPT])F-OH [Compound 11, Arg-PEG4-Phe-Arg-Ser(CO-CPT)-Phe-OH] , I see its Ratio (T1/2 Compound/T1/2 Reference) listed as 0.2

Looking up FKKF (Ac-Cys-Mal-PEG4 at the N-terminus; Lys(Mal-DM1)) [Compound 12, Ac-Cys-Mal-PEG4-Phe-Lys-Lys(Mal-DM1)-Phe-OH] , I see its Ratio (T1/2 Compound/T1/2 Reference) listed as 0.14

Looking up R[PEG4′]FR[Dap](CO‑CPT)F-OH [Compound 9, Arg-PEG4-Phe-Arg-Dap(CO-CPT)-Phe-OH] , I see its Ratio (T1/2 Compound/T1/2 Reference) listed as 0.63
